assay notes: AUC in cynomolgus monkey at 1.9 mg/kg, po
Assay type: ADME, organism-based, Macaca fascicularis
test settings: in vivo
experimental readout: AUC

Task item: Looking for the measured AUC of CN1C(=O)[C@@H](NC(=O)c2nnc(Cc3ccccc3)[nH]2)COc2ccccc21 [GSK2982772] , can you help?
Reply: 2900 ng·h/mL

* * *

target system: Voltage-gated inwardly rectifying potassium channel KCNH2 (Homo sapiens, UniProt Q12809)
Sequence (Q12809 whole entry): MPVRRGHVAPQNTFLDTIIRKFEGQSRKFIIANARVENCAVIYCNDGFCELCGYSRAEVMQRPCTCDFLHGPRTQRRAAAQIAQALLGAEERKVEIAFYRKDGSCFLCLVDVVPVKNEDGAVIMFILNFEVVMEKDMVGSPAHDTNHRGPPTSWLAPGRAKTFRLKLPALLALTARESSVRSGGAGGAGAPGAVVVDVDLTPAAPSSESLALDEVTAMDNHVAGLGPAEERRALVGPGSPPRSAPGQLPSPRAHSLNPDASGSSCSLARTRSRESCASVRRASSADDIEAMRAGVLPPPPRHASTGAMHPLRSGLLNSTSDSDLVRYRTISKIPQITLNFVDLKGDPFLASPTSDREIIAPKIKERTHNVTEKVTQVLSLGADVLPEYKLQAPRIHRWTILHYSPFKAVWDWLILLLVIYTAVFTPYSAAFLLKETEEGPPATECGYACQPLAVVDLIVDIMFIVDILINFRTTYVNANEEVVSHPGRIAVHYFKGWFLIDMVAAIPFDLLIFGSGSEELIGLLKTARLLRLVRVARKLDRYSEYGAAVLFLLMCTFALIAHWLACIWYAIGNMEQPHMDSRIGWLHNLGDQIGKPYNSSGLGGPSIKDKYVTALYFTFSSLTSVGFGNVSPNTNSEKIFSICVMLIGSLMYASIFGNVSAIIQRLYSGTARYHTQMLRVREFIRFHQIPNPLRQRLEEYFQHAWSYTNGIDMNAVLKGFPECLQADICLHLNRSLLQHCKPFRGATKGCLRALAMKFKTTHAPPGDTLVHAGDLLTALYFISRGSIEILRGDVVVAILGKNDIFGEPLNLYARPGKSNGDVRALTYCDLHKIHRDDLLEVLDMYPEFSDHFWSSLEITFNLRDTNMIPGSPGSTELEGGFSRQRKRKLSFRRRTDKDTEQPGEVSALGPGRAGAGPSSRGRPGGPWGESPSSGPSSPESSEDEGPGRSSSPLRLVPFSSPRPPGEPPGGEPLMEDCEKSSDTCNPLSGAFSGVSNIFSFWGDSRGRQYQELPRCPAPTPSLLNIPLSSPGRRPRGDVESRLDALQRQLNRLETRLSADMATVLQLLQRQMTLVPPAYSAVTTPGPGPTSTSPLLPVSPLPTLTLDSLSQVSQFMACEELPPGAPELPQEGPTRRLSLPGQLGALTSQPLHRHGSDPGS
assay notes: Inhibition of human ERG expressed in HEK293 cells
Format: cell-based
experimental readout: IC50

Task item: Looking for the measured IC50 of CN1C(=O)[C@@H](NC(=O)c2nnc(Cc3ccccc3)[nH]2)COc2ccccc21 , can you help?
Reply: 195 µM
